- targetSystem: furin, P09958;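 also: purified furin at 1:10 enzyme:substrate in 50 mM HEPES pH 7.5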
- Sequence (P09958 whole entry): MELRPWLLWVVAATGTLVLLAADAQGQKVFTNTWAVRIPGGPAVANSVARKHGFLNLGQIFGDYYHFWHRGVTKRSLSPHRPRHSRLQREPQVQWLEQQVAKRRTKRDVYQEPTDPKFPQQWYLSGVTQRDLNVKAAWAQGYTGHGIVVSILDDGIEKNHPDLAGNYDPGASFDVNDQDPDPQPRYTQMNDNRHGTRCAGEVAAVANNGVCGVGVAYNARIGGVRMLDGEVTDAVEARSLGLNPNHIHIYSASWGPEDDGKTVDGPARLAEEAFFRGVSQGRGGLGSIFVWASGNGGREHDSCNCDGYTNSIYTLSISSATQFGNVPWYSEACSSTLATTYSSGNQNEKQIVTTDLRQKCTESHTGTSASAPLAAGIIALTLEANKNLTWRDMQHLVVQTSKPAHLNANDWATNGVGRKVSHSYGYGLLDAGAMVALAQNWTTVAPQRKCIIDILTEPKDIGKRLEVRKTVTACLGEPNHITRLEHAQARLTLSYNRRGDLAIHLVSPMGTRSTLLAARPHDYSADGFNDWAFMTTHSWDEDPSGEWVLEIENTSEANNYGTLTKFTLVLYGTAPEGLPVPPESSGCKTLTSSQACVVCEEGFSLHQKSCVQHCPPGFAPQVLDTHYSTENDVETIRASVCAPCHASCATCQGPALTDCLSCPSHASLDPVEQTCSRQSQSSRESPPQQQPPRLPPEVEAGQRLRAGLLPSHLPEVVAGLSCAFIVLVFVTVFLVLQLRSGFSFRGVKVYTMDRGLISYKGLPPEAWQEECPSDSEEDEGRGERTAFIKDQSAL
- test: furin cleavage Z-score vs untreated control; higher = more cleavage, active = 3.5 or more, inactive = 1 or less, 8 variable residues between constant flanks
- runConditions: 15 min
The other results are listed elsewhere or left out. The hit rate among all sequences tested is not known here.
# reported furin cleavage Z-score; entries follow
assayMetric: furin cleavage Z-score

CASKKRKKKHAGNASASA [FS-720]    0.768
CAAAAAAAAAAGNASASA [NE2]    0.496
CAVLSRRKRHAGNASASA [FS-1430]    13.1
CAFCTTPCSGAGNASASA [HC1947]    -0.358
CADLELITSCAGNASASA [HC1550]    -0.229
CASQLRYRRCAGNASASA [FS-503]    7.81
CASAHREPRLAGNASASA [FS-143]    -2.16
CARAKRFVSIAGNASASA [FS-1993]    4.17
CAVLSRDGRKAGNASASA [FS-105]    0.968
CANWQKLETFAGNASASA [HC1037]    -1.06
CAVSRRSRGIAGNASASA [FS-2857]    3.08
CAPQLPGIPFAGNASASA [HC1161]    -1.22
CARSNRQLGIAGNASASA [FS-2185]    -0.691
CAIPDRLRKCAGNASASA [FS-1014]    -0.376
CAPRYRRKRHAGNASASA [FS-1552]    11.7
